- Assay system: 5-lipoxygenase (Rattus norvegicus, UniProt P12527)
- Construct: prelabelled rat peritoneal neutrophils; endogenous in cells
- Sequence (P12527 1-673): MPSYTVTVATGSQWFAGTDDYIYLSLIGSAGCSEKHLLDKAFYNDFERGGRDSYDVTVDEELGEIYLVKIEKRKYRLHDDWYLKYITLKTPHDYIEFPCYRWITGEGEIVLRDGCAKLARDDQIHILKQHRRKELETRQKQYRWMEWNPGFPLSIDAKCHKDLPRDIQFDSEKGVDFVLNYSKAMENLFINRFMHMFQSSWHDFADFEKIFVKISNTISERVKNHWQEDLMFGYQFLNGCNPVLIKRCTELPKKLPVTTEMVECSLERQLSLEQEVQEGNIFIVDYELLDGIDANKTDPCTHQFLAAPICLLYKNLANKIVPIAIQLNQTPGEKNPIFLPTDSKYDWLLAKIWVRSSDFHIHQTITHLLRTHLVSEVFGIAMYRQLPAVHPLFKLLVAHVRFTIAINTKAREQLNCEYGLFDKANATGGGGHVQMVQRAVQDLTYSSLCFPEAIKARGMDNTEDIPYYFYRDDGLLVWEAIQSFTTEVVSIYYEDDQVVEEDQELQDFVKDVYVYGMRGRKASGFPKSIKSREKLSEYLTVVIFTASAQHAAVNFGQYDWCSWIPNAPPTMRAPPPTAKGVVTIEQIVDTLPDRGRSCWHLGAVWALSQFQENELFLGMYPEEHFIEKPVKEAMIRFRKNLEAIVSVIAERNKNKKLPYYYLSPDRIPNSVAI
- Assay notes: Inhibition of Ca++ ionophore (A23187)-induced release of 5-lipoxygenase products (leukotriene B4 and 5-HETE) from [14C]-arachidonic acid prelabelled rat peritoneal neutrophils
- Test parameters: A23187-induced release of leukotriene B4 and 5-HETE, determined graphically from dose response curves, read-out: micro molecular concentration of the compounds causing a 50% inhibition of the control response for 5-lipoxygenase
Assay readout: pIC50
For clarity, pIC50 is expressed as the negative log10 of concentration in mol/L.

Example cases with answers are listed next.
[[record]]
smiles_input = "Clc1cc2nc(SCc3nc4ccccc4s3)[nH]c2cc1Cl"
measured_result = 6.64

[[record]]
smiles_input = "c1ccc2[nH]c(SCc3nc4ccccc4s3)nc2c1"
measured_result = 5.46


Please turn your attention to the following entry.
Fill blank: measured pIC50 of the compound Clc1ccc2[nH]c(SCc3nc4ccccc4s3)nc2c1 is ____.
6.23

Provenance of the data: patent US4794122A
